Each record here notes measured CC50.
- Test system: MDA-MB-231 cells
- assay notes: MTS viability assay, MDA-MB-231 breast cancer cells
- Type: cell-based, human
- details: Table 1A, 48 h, read-out: CC50 values MD 231
value kind: CC50 (µM)

CCCCCCCCCCCCCCCCOC[C@@H](CN)O[C@H]1O[C@H](CO)[C@@H](O)[C@H](O)[C@H]1N: 12
CCCCCCCCCCCCCCCCOCC(N)CO[C@H]1O[C@H](CO)[C@@H](O)[C@H](O)[C@H]1N (some centres unmarked): 6
CCCCCCCCCCCCCCCCOC[C@H](CO[C@@H]1O[C@H](CN)[C@@H](O)[C@H](O)[C@H]1N)OC: 5.5
CCCCCCCCCCCCCCCCOCCCO[C@@H]1O[C@H](CN)[C@@H](O)[C@H](O)[C@H]1N: 4.5
CCCCCCCCCCCCCCCCOC[C@H](CO[C@H]1O[C@H](CN)[C@@H](O)[C@H](O)[C@H]1N1C(=O)c2ccccc2C1=O)OC: 20
CCCCCCCCCCCCCCCCOC[C@@H](CN=[N+]=[N-])O[C@@H]1O[C@H](CO)[C@@H](O)[C@H](O)[C@H]1N: 11

###

- Tested on: BT-474, JIMT-1, MDA-MB-231 (breast), DU145, PC3 (prostate), MiaPaCa2 (pancreas)
- assay notes: MTS viability, panel of epithelial cancer cell lines (ranges over the cell lines)
- Type: cell-based, human
- details: range over the cell lines tested, 48 h; read-out: CC50 values, range depending on the cell line
value kind: CC50

CCCCCCCCCCCCCCCCOCC(CO[C@@H]1O[C@H](CN)[C@@H](O)[C@H](O)[C@H]1N)O[C@@H]1O[C@H](CN)[C@@H](O)[C@H](O)[C@H]1N (some centres unmarked) [Compound 5]: > 30 µM
CCCCCCCCCCCCCCCCOC[C@@H](CN=[N+]=[N-])O[C@@H]1O[C@H](CO)[C@@H](O)[C@H](O)[C@H]1N [Compound 6]: 6 to 22 µM
CCCCCCCCCCCCCCCCOCCCO[C@@H]1O[C@H](CN)[C@@H](O)[C@H](O)[C@H]1N [Compound 4]: 4 to 8.5 µM
CCCCCCCCCCCCCCCCOC[C@H](CO[C@@H]1O[C@H](CN)[C@@H](O)[C@H](O)[C@H]1N)OC [Compound 2]: 4.2 to 11.5 µM
CCCCCCCCCCCCCCCCOC[C@H](COC1O[C@H](CNCCCCCCCCCCCCN)[C@@H](O)[C@H](O)[C@H]1N)OC (some centres unmarked) [Compound 73]: 1.5 to 4 µM

###

- System: BT-474 cells
- assay notes: MTS viability assay, BT-474 breast cancer cells
- Type: cell-based, human
- details: Table 6; 48 h, MTS; read-out: BT474 CC50
value kind: CC50 (µM)

CCCCCCCCCCCCCCCCOC[C@H](COC1O[C@H](CNCCCCCCCCCCCCN)[C@@H](O)[C@H](O)[C@H]1N)OC (stereo partly shown): 1.6
CCCCCCCCCCCCCCCCOC[C@H](COC1O[C@H](CN)[C@@H](O)[C@H](O)[C@H]1NCCCCCCCCCCCCN)OC (stereo partly shown): 13.5

###

- Test system: JIMT-1 cells
- assay notes: MTS viability assay, JIMT-1 breast cancer cells
- Type: cell-based, human
- details: Table 1B, 48 h, read-out: CC90 values JIMT1
Each record is given yes (1) if its reported CC90 is strictly below 8 µM. Records at or above 8 µM are given no (0).

CCCCCCCCCCCCCCCCOCC(CO[C@@H]1O[C@H](CO)[C@@H](O)[C@H](O)[C@H]1N)NC(=O)CCCCCCCCCCCCCCC (some centres unmarked): no (0)
CCCCCCCCCCCCCCCCOC[C@H](CO[C@H]1O[C@H](CN)[C@@H](O)[C@H](O)[C@H]1N1C(=O)c2ccccc2C1=O)OC: no (0)
CCCCCCCCCCCCCCCCOC[C@@H](CN)O[C@H]1O[C@H](CO)[C@@H](O)[C@H](O)[C@H]1N: no (0)
CCCCCCCCCCCCCCCCOCCCO[C@@H]1O[C@H](CN)[C@@H](O)[C@H](O)[C@H]1N: yes (1)
CCCCCCCCCCCCCCCCOCC(CO[C@@H]1O[C@H](CN)[C@@H](O)[C@H](O)[C@H]1N)O[C@@H]1O[C@H](CN)[C@@H](O)[C@H](O)[C@H]1N (some centres unmarked): no (0)
CCCCCCCCCCCCCCCCOC[C@H](CO[C@@H]1O[C@H](CN)[C@@H](O)[C@H](O)[C@H]1N)OC: yes (1)
CCCCCCCCCCCCCCCCOCC(N)CO[C@H]1O[C@H](CO)[C@@H](O)[C@H](O)[C@H]1N (some centres unmarked): yes (1)
CCCCCCCCCCCCCCCCOC[C@@H](CN=[N+]=[N-])O[C@@H]1O[C@H](CO)[C@@H](O)[C@H](O)[C@H]1N: no (0)

###

- System: PC3 cells
- assay notes: MTS viability assay, PC3 prostate cancer cells
- Assay type: cell-based, human
- details: Table 1A; 48 h, MTS; read-out: CC50 values PC3
Each record here notes measured CC50.
value kind: CC50 (µM)

CCCCCCCCCCCCCCCCOC[C@@H](CN)O[C@H]1O[C@H](CO)[C@@H](O)[C@H](O)[C@H]1N [Compound 7]: 9.5
CCCCCCCCCCCCCCCCOC[C@@H](CN=[N+]=[N-])O[C@@H]1O[C@H](CO)[C@@H](O)[C@H](O)[C@H]1N [Compound 6]: 6
CCCCCCCCCCCCCCCCOCC(N)CO[C@H]1O[C@H](CO)[C@@H](O)[C@H](O)[C@H]1N (some centres unmarked) [Compound 8]: 9
CCCCCCCCCCCCCCCCOC[C@H](CO[C@@H]1O[C@H](CN)[C@@H](O)[C@H](O)[C@H]1N)OC [Compound 2]: 11
CCCCCCCCCCCCCCCCOC[C@H](CO[C@H]1O[C@H](CN)[C@@H](O)[C@H](O)[C@H]1N1C(=O)c2ccccc2C1=O)OC [Compound 3]: 15
CCCCCCCCCCCCCCCCOCCCO[C@@H]1O[C@H](CN)[C@@H](O)[C@H](O)[C@H]1N [Compound 4]: 8

###

- Test system: BT-474 cells
- assay notes: MTS viability assay, BT-474 breast cancer cells
- Assay type: cell-based, human
- details: Table 6; 48 h, MTS; read-out: BT474 CC90
value kind: CC90

CCCCCCCCCCCCCCCCOC[C@H](COC1O[C@H](CN)[C@@H](O)[C@H](O)[C@H]1NCCCN)OC (stereo partly shown): > 20 µM
CCCCCCCCCCCCCCCCOC[C@H](COC1O[C@H](CN)[C@@H](O)[C@H](O)[C@H]1NCCCCCCCCCCCCN)OC (stereo partly shown): 16.5 µM
CCCCCCCCCCCCCCCCOC[C@H](COC1O[C@H](CNCCCCCCCCCCCCN)[C@@H](O)[C@H](O)[C@H]1N)OC (stereo partly shown): 4.2 µM
CCCCCCCCCCCCCCCCOC[C@H](COC1O[C@H](CNCCCN)[C@@H](O)[C@H](O)[C@H]1N)OC (stereo partly shown): > 20 µM

###

- System: MDA-MB-231 cells
- assay notes: MTS viability assay, MDA-MB-231 breast cancer cells
- Format: cell-based, human
- details: Table 5, 48 h, read-out: CC50 MDA-MB-231
Each record here notes measured CC50.
value kind: CC50

CCCCCCCCCCCCCCCCOC[C@H](CO[C@@H]1O[C@@H](CN)[C@H](O)[C@@H](O)[C@@H]1N)OC: 5.5 µM
CCCCCCCCCCCCCCCCOC[C@H](CO[C@@H]1O[C@@H](CN)[C@H](OCc2ccccc2)[C@@H](O)[C@@H]1N)OC: 4 µM
CCCCCCCCCCCCCCCCOC[C@H](CO[C@H]1O[C@@H](CN)[C@H](OCc2ccccc2)[C@@H](O)[C@@H]1N)OC: 4 µM

###

- System: PC3 cells
- assay notes: MTS viability assay, PC3 prostate cancer cells
- Type: cell-based, human
- details: Table 1B; 48 h, MTS; read-out: CC90 values PC3
Each record here notes measured CC90.
value kind: CC90 (µM)

CCCCCCCCCCCCCCCCOC[C@H](CO[C@@H]1O[C@H](CN)[C@@H](O)[C@H](O)[C@H]1N)OC: 14
CCCCCCCCCCCCCCCCOC[C@@H](CN=[N+]=[N-])O[C@@H]1O[C@H](CO)[C@@H](O)[C@H](O)[C@H]1N: 15
CCCCCCCCCCCCCCCCOC[C@H](CO[C@H]1O[C@H](CN)[C@@H](O)[C@H](O)[C@H]1N1C(=O)c2ccccc2C1=O)OC: 30
CCCCCCCCCCCCCCCCOCCCO[C@@H]1O[C@H](CN)[C@@H](O)[C@H](O)[C@H]1N: 14
CCCCCCCCCCCCCCCCOC[C@@H](CN)O[C@H]1O[C@H](CO)[C@@H](O)[C@H](O)[C@H]1N: 17
CCCCCCCCCCCCCCCCOCC(N)CO[C@H]1O[C@H](CO)[C@@H](O)[C@H](O)[C@H]1N (some centres unmarked): 14
